Assay: Toxicity in Balb/c mouse assessed as survival rate at 100 mg/kg, ip qd administered for 6 days followed by 1 week recovery (reference value: 100%)
Format: organism-based
Details: in vivo
TEST READOUT: survival
Write the numeric value and append its unit.

GET /values?readout=survival&item= `COc1ccc(C(=O)c2ccc3c(ccn3Cc3ccc(C(=O)NO)cc3)c2)cc1`
100%

====

Target: Histone deacetylase 2 (Homo sapiens, UniProt Q92769)
Sequence (Q92769 whole entry): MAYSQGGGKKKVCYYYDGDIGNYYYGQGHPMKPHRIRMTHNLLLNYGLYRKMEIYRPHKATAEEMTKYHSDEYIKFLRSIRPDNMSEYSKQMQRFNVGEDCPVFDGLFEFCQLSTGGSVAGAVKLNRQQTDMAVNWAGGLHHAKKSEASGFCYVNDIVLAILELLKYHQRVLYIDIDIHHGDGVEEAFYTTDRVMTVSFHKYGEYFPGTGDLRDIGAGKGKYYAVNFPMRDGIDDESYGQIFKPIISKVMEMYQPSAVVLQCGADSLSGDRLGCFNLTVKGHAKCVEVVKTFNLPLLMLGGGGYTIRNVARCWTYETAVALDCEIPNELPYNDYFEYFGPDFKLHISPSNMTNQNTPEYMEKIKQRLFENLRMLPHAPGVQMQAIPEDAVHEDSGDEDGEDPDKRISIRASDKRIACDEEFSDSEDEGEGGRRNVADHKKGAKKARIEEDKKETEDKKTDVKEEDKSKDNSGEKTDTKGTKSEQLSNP
Lab note: anything with IC50 below 5 µM is marked met; values at 5 µM or higher are marked not met.

// below: answered molecules
>>> print(df.to_string())
                           structure_string                       experimental_target  discrete_label
0  COc1cc(C(=O)c2ccc3c(ccn3Cc3ccc(/C=C/C(=O)NO)cc3)c2)cc(OC)c1OC  Histone deacetylase 2 (Homo sapiens, UniProt Q92769)         not met
1  COc1ccc(C(=O)c2ccc3c(ccn3Cc3ccc(/C=C/C(=O)NO)cc3)c2)cc1  Histone deacetylase 2 (Homo sapiens, UniProt Q92769)             met
2  Cc1ccc(C(=O)c2ccc3c(ccn3S(=O)(=O)c3cccc(/C=C/C(=O)NO)c3)c2)cc1  Histone deacetylase 2 (Homo sapiens, UniProt Q92769)         not met
3  COc1ccc(C(=O)c2ccc3c(ccn3S(=O)(=O)c3ccc(/C=C/C(=O)NO)cc3)c2)cc1  Histone deacetylase 2 (Homo sapiens, UniProt Q92769)         not met
4  COc1cccc(C(=O)c2ccc3c(ccn3S(=O)(=O)c3cccc(/C=C/C(=O)NO)c3)c2)c1  Histone deacetylase 2 (Homo sapiens, UniProt Q92769)             met

Then this molecule:
Regarding `COc1ccc(C(=O)c2ccc3c(ccn3Cc3ccc(C(=O)NO)cc3)c2)cc1` , kindly confirm whether its IC50 is beneath 5 µM.
met

====

Organism: Homo sapiens
Test: Selectivity index, ratio of IC50 for human HDAC2 to IC50 for human HDAC6
Each entry below carries its reported Ratio IC50.
Kindly provide the number alone.

>>> print(df.to_string())
                           structure_string  test_readout  reported
0  COc1ccc(C(=O)c2ccc3c(ccn3Cc3ccc(C(=O)NO)cc3)c2)cc1OC    Ratio IC50       196
1  Cc1ccc(C(=O)c2ccc3c(ccn3Cc3ccc(C(=O)NO)cc3)c2)cc1    Ratio IC50       609
2  COc1cc(C(=O)c2ccc3c(ccn3Cc3ccc(/C=C/C(=O)NO)cc3)c2)cc(OC)c1OC    Ratio IC50      40.1
3  COc1ccc(C(=O)c2ccc3c(ccn3Cc3ccc(C(=O)NO)cc3)c2)cc1    Ratio IC50       145
4  COc1cc(C(=O)c2ccc3c(ccn3S(=O)(=O)c3cccc(/C=C/C(=O)NO)c3)c2)cc(OC)c1OC    Ratio IC50       3.1

// switching to the query compound
GET /values?readout=Ratio IC50&item= `O=C(NO)c1ccc(Cn2ccc3cc(C(=O)c4ccc(Cl)cc4)ccc32)cc1`
312

====

Each entry below carries its reported pIC50.
Target: UniProtKB Q969S8
Sequence (Q969S8 whole entry): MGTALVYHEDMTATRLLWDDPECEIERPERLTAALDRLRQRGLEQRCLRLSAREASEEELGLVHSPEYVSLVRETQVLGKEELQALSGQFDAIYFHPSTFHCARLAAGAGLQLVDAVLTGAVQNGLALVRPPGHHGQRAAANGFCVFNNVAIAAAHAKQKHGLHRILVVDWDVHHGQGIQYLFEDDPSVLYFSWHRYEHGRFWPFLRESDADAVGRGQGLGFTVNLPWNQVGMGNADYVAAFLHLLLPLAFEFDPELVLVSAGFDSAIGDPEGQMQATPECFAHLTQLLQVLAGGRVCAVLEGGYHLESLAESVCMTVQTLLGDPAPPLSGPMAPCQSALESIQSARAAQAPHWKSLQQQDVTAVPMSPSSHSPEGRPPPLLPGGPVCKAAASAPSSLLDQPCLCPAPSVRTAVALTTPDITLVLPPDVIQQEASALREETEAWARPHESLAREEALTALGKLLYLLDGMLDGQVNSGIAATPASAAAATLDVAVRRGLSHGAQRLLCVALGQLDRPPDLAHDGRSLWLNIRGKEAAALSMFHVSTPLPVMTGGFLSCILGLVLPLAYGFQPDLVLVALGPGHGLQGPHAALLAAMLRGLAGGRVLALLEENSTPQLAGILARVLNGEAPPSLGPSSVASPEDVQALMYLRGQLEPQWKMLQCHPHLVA
Lab note: report pIC50 as minus log10 of the concentration in molar units, number only.

>>> df
                           structure_string  test_readout  reported
0  COc1ccc(C(=O)c2ccc3c(ccn3Cc3ccc(C(=O)NO)cc3)c2)cc1OC         pIC50      4.72
1  COc1ccc(C(=O)c2ccc3c(ccn3S(=O)(=O)c3cccc(/C=C/C(=O)NO)c3)c2)cc1OC         pIC50      5.08
2  COc1cccc(C(=O)c2ccc3c(ccn3S(=O)(=O)c3cccc(/C=C/C(=O)NO)c3)c2)c1         pIC50      5.11

# query: pIC50 | item `COc1cccc(C(=O)c2ccc3c(ccn3Cc3ccc(C(=O)NO)cc3)c2)c1` | system: UniProtKB Q969S8
4.32

Try this compound too: `COc1ccc(C(=O)c2ccc3c(ccn3Cc3ccc(C(=O)NO)cc3)c2)cc1`
4.22
